The measured values listed here are drawn from patent US20260317319A1.

Method Summary: in vitro
Type: in vitro ADME, human
Experimental Conditions: HLM 0.50 mg/mL, NADPH 1 mM, 1 μM compound, pH 7.4, 37° C., 60 min
Classes based on half-life (t1/2): low band = under 3 min, middle band = from 3 min up to 10 min, high band = 10 min and over

Answered examples (10):
Compound | Class Label
CCCN1C[C@H](C(=O)NC(CC)CC)C=C2c3cccc4[nH]cc(c34)C[C@H]21 | low band
CCN(CC)C(=O)[C@@H]1C=C2c3cccc4[nH]cc(c34)C[C@H]2N(Cc2ccccc2O)C1 | middle band
CCN(CC)C(=O)[C@@H]1C=C2c3cccc4[nH]cc(c34)C[C@H]2N(CCc2ccccc2OC)C1 | low band
CCN(CC)C(=O)[C@@H]1C=C2c3cccc4[nH]cc(c34)C[C@H]2N(Cc2ccccc2OC)C1 | middle band
CCN(CC)C(=O)[C@@H]1C=C2c3cccc4[nH]cc(c34)C[C@H]2N(CCC(F)(F)F)C1 | high band
CCN(CC)C(=O)[C@@H]1C=C2c3cccc4[nH]c(Br)c(c34)C[C@H]2N(C)C1 | high band
CN1C[C@H](C(=O)N2CCCC2)C=C2c3cccc4[nH]cc(c34)C[C@H]21 | high band
CCN(CC)C(=O)[C@H]1C=C2c3cccc4[nH]cc(c34)C[C@H]2N(CCCF)C1 | high band
[2H]C([2H])([2H])Oc1cccc(CN2C[C@H](C(=O)N(CC)CC)C=C3c4cccc5[nH]cc(c45)C[C@H]32)c1 | high band
CCCN1C[C@@H](C(=O)N[C@H](C)CC)C=C2c3cccc4[nH]cc(c34)C[C@H]21 | low band

Q: // bin(item) where item = CCC[C@@H](C)NC(=O)[C@@H]1C=C2c3cccc4[nH]cc(c34)C[C@H]2N(CCC)C1
Ans: low band

Q: In plain terms, what class is C[C@H]1C[C@H](C)N1C(=O)[C@@H]1C=C2c3cccc4[nH]cc(c34)C[C@H]2N(C)C1 ?
Ans: high band

Q: Lab log: CCN(CC)C(=O)[C@@H]1C=C2c3cccc4[nH]cc(c34)C[C@H]2N(Cc2cccc(OC)c2)C1 — assign half-life (t1/2) category
Ans: high band

Q: Form: Item = C=CCN1C[C@@H](C(=O)N[C@H](C)CC)C=C2c3cccc4[nH]cc(c34)C[C@H]21 ; Class = ?
Ans: middle band

Q: Hi, small favor: classify CCN(CC)C(=O)[C@@H]1C=C2c3cccc4[nH]cc(c34)C[C@H]2N(Cc2ccc(OC)cc2)C1 by its half-life (t1/2) when you get a moment.
Ans: high band

* * *

Attribute: Emax
Test System: Alpha1A adrenergic receptor (Homo sapiens)
Construct: expressed in transfected cells
Sequence (P35348 whole entry): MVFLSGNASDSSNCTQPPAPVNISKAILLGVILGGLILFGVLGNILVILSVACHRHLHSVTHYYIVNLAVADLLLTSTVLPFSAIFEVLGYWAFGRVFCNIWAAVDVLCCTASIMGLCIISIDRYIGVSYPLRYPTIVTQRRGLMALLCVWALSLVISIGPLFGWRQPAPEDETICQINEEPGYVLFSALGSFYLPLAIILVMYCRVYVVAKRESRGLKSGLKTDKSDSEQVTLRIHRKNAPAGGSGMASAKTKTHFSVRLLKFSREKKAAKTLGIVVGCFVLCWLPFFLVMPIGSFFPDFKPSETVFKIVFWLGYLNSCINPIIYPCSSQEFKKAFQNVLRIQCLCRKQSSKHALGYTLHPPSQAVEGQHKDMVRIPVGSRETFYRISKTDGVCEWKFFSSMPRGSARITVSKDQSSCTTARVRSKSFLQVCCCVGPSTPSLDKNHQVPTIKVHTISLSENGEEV
Method Summary: Ca2+ flux functional assay at Alpha1A
Type: cell-based
Experimental Conditions: agonist, Ca2+ flux, max dose; read-out: Alpha 1A % Act @ Max Dose
Report the value in % with no unit label.

Known results for molecules:
Molecule | Numeric Value
CCCN1C[C@H](C(=O)N(CC)CC)C=C2c3cccc4[nH]cc(c34)C[C@H]21 | 80.6
CCCN1C[C@H](C(=O)N[C@H](C)CC)C=C2c3cccc4[nH]cc(c34)C[C@H]21 | 125
CCN(CC)C(=O)[C@@H]1C=C2c3cccc4[nH]cc(c34)C[C@H]2N(CCC(F)(F)F)C1 | 2.08
CCN(CC)C(=O)[C@@H]1C=C2c3cccc4[nH]cc(c34)C[C@H]2N(Cc2ccccc2OC)C1 | 26.6
CCCN1C[C@H](C(=O)N2[C@@H](C)C[C@@H]2C)C=C2c3cccc4[nH]cc(c34)C[C@H]21 | 119
CCN(CC)C(=O)[C@@H]1C=C2c3cccc4[nH]cc(c34)C[C@H]2N(CCCF)C1 | 110

Q: For the record CCN(CC)C(=O)[C@@H]1C=C2c3cccc4[nH]cc(c34)C[C@H]2N(C)C1 [LSD, lysergic acid diethylamide, reference compound] , what value of Emax is listed for Alpha1A adrenergic receptor (Homo sapiens)?
Ans: 60.3

Q: Tell me reported Emax for CCN(CC)C(=O)[C@@H]1C=C2c3cccc4[nH]cc(c34)C[C@H]2N(CC2CC2)C1 , tested with Alpha1A adrenergic receptor (Homo sapiens).
Ans: 80.8

* * *

Test System: 5-HT2A receptor (Homo sapiens, UniProt P28223)
Sequence (P28223 whole entry): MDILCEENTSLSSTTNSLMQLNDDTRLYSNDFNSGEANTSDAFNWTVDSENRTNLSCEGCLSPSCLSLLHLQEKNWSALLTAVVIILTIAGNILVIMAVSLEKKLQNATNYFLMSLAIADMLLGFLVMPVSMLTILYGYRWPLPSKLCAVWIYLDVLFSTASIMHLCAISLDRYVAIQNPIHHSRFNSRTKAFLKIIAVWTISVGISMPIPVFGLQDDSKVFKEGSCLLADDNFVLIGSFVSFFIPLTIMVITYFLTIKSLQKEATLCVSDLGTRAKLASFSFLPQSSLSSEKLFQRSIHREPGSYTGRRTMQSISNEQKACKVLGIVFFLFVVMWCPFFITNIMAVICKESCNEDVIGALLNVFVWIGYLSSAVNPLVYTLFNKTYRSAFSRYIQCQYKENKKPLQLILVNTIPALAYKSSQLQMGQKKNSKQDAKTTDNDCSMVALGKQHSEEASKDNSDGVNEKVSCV
Method Summary: cell-based
Format: cell-based
Protocol: Arrestin Functional Assay at 5-HT2A. Recruitment of beta-arrestin was determined using a PathHunter assay at Eurofins DiscoverX (Fremont, CA) according to their standard protocols. PathHunter GPCR beta-arrestin assays take advantage of DiscoverX's proprietary Enzyme Fragment Complementation technology. […] This interaction leads to an increase in enzyme activity that can be measured using chemiluminescent PathHunter Detection Reagents. […]
Endpoint: pEC50
When answering, recall that pEC50 equals minus log10 of the concentration in mol/L, and write that number alone.

Q: Item under review: CCN(CC)C(=O)[C@@H]1C=C2c3cccc4[nH]c(Br)c(c34)C[C@H]2N(C)C1 . Reported pEC50?
Ans: 8.78

* * *

Method Summary: in vitro
Assay type: in vitro ADME, mouse
Experimental Conditions: mouse, microsomes; MLM (male CD-1) 0.50 mg/mL, NADPH 1 mM, 1 μM compound, pH 7.4, 37° C., 60 min; read-out: half-life (t1/2)
Endpoint: half-life
Returns: string containing the numeric result and its unit.

Study these solved cases before continuing.
Compound | half-life
CCN(CC)C(=O)[C@@H]1C=C2c3cccc4[nH]cc(c34)C[C@H]2N(Cc2cnco2)C1 | 16.7 min
CCN(CC)C(=O)[C@@H]1C=C2c3cccc4[nH]cc(c34)C[C@H]2N(Cc2ccon2)C1 | 9 min

Q: Fill in the blank: the reported half-life of CCNC(=O)[C@@H]1C=C2c3cccc4[nH]cc(c34)C[C@H]2N(Cc2cccc(OC)c2)C1 is ____.
Ans: 0.9 min

Q: Please give the measured half-life for this compound: CCN(CC)C(=O)[C@@H]1C=C2c3cccc4[nH]cc(c34)C[C@H]2N(Cc2ccc3ccccc3c2)C1
Ans: 11.8 min

* * *

Method Summary: in vitro
Type: in vitro ADME, mouse
Experimental Conditions: MLM (male CD-1) 0.50 mg/mL, NADPH 1 mM, 1 μM compound, pH 7.4, 37° C., 60 min
// assign Y if half-life (t1/2) falls strictly below 0.9 min, else N (ties count as N)

The examples below pair each entry with its known result.
Compound | Class Label
CCCN1C[C@H](C(=O)N2[C@@H](C)C[C@@H]2C)C=C2c3cccc4[nH]cc(c34)C[C@H]21 | Y
C[C@H]1C[C@H](C)N1C(=O)[C@@H]1C=C2c3cccc4[nH]cc(c34)C[C@H]2N(C)C1 | N
CCN(CC)C(=O)[C@@H]1C=C2c3cccc4[nH]cc(c34)C[C@H]2N(Cc2ccccc2OC)C1 | N
CCN(CC)C(=O)[C@@H]1C=C2c3cccc4[nH]cc(c34)C[C@H]2N(CCC(F)(F)F)C1 | N
C=CCN1C[C@@H](C(=O)N[C@H](C)CC)C=C2c3cccc4[nH]cc(c34)C[C@H]21 | Y

Below: the item to evaluate.
Q: Below 0.9 min on half-life (t1/2)? Entry CCN(CC)C(=O)[C@H]1C=C2c3cccc4[nH]cc(c34)C[C@H]2N(CCCF)C1
Ans: N

* * *

Examples of compounds with documented EC50 follow.
Test System: 5-HT2A receptor (Homo sapiens, UniProt P28223)
Method Summary: cell-based
Assay type: cell-based
Set-up: expressed in transfected cells; host or cells: HEK293, stably transfected
Experimental Conditions: agonist, Ca2+ flux, HEK293
// return numeric value only (unit: nM, not printed)

Worked examples follow.
Compound | EC50 (nM)
CCNC(=O)[C@@H]1C=C2c3cccc4[nH]cc(c34)C[C@H]2N(Cc2cccc(OC)c2)C1 | 96.9
CCN(CC)C(=O)[C@@H]1C=C2c3cccc4[nH]cc(c34)C[C@H]2N(Cc2ccnc(OC)c2)C1 | 2500
CC[C@@H](C)NC(=O)[C@@H]1C=C2c3cccc4[nH]cc(c34)C[C@H]2N(Cc2cccc(OC)c2)C1 | 642
CCN(C)C(=O)[C@@H]1C=C2c3cccc4[nH]cc(c34)C[C@H]2N(CC2CCCC2)C1 | 422
CCCN(CC)C(=O)[C@@H]1C=C2c3cccc4[nH]cc(c34)C[C@H]2N(Cc2ccccc2)C1 | 933

Q: Value lookup for EC50; key = CCN(CC)C(=O)[C@@H]1C=C2c3cccc4[nH]cc(c34)C[C@H]2N(Cc2cccnc2)C1
Ans: 158

Q: Please report the recorded EC50 for CCN(CC)C(=O)[C@@H]1C=C2c3cccc4[nH]cc(c34)C[C@H]2N(Cc2ccc(C)cc2)C1 .
Ans: 23.1

* * *

Measured 5-HT2A Arrestin % Act @ Max Dose by item
Test System: 5-HT2A receptor (Homo sapiens, UniProt P28223)
Method Summary: cell-based
Assay type: cell-based
Experimental Conditions: agonist, beta-arrestin recruitment, max dose
Description: Arrestin Functional Assay at 5-HT2A. Recruitment of beta-arrestin was determined using a PathHunter assay at Eurofins DiscoverX (Fremont, CA) according to their standard protocols. PathHunter GPCR beta-arrestin assays take advantage of DiscoverX's proprietary Enzyme Fragment Complementation technology. […] This interaction leads to an increase in enzyme activity that can be measured using chemiluminescent PathHunter Detection Reagents. […]
Record the value in %, omitting the unit from your answer.

Would you please look over these solved cases?
Compound | Numeric Value
C[C@H]1C[C@H](C)N1C(=O)[C@@H]1C=C2c3cccc4[nH]cc(c34)C[C@H]2N(C)C1 | 49.27
CCN(CC)C(=O)[C@@H]1C=C2c3cccc4[nH]cc(c34)C[C@H]2N(CCc2ccccc2OC)C1 | 54.26
CCN(CC)C(=O)[C@@H]1C=C2c3cccc4[nH]c(Br)c(c34)C[C@H]2N(C)C1 | 30.94

Moving on to another compound below.
Q: # returns recorded 5-HT2A Arrestin % Act @ Max Dose (system: 5-HT2A receptor (Homo sapiens, UniProt P28223)) for CCN(CC)C(=O)[C@@H]1C=C2c3cccc4[nH]cc(c34)C[C@H]2NC1
Ans: 88.78
